System: MILI (PIWIL2) piRISC loaded with L1MC piRNA (26 nt);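 also: 1 nM active piRISC with 0.1 nM target library at 33 °C single turnover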
ASSAY OVERVIEW: pre-steady-state target cleavage rate (min^-1); guide: L1MC piRNA 5'p-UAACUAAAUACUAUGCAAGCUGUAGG; higher = faster piRNA-guided slicing of the target
CONDITIONS USED: auxiliary factor: 500 nM mouse GTSF1
just bin them by pre-steady-state target cleavage rate: category 1 (below 0.07), category 2 (0.07 to below 0.2), category 3 (0.2 or more)

Completed entries (count: 6):
UCCUGGAACACGUUGCAUAGUAUUUAGAAA    category 2
UCCUGGUAGAGCUUGCAUAGUAAUUAGUUA    category 2
UCCUGCUACAGCUUGCUAAGUAUUUAGUUA    category 2
UCCUGGUCCAGCUUGCAUAGUAUUUAGUUA    category 3
UCCUGGAUCACCUUGCAUAGUAUUUAGAUA    category 2
UCCUGCUACACCUUCCAUAGUAUUUAGUUA    category 1

Which bin should I file UCCUGGAAGAGCUUGCAUAGUAUAUAGUUA under?
category 2

---

Tested on: MILI (PIWIL2) piRISC loaded with L1MC piRNA (26 nt);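 also: 1 nM active piRISC with 0.1 nM target library at 33 °C single turnover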
ASSAY OVERVIEW: pre-steady-state target cleavage rate (min^-1); guide: L1MC piRNA 5'p-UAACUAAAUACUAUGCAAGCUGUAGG; higher = faster piRNA-guided slicing of the target
CONDITIONS USED: auxiliary factor: 500 nM mouse GTSF1
ATTRIBUTE MEASURED: pre-steady-state target cleavage rate
Returns: the value as a bare number; no unit string appended.

In the examples that follow, each entry is paired with its recorded pre-steady-state target cleavage rate.
UCCUGGAUCAGGUUGCAUAGUAUUUACUUA    0.117
UCCUGGAUGAGCUUGCAUACUAUUUAGUAA    0.00877
UCCUGGAUGAGCAUGCAUAGUAUUUAGAUA    0.166
UCCUGGAACAGGUUGCAUAGAAUUUAGUUA    0.0524
UCCUCCUACAGCUAGCAUAGAAUUUAGUUA    0.0602
UCCUCCUACAGCUUGCAUACUAUUUUGUUA    0.0272
UCCUGGAACAGCUAGCAUAGUAUUUUGUUA    0.154
UCCUCCUUCAGCUAGCAUAGUAUUUAGUUA    0.228
UCCUGGUACAGCUUGCAUUGUAUUUAGUUA    0.171
UCCUGGAUCAGAUUGCAUAGUAUUUAGUUA    0.205

// fetch pre-steady-state target cleavage rate given entry UCCUGGAUGUCCUUGCAUAGUAUUUAGUUUA
0.104

Check the records and state pre-steady-state target cleavage rate for UCCUGGAUGUGCUUGCAUAGUACUUAGUUA
0.105

---

Test system: MILI (PIWIL2) piRISC loaded with L1MC piRNA (26 nt);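 also: 1 nM active piRISC with 0.1 nM target library at 33 °C single turnover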
ASSAY OVERVIEW: pre-steady-state target cleavage rate (min^-1); guide: L1MC piRNA 5'p-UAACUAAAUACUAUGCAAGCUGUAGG; MIWI and MILI are mouse PIWI proteins and EfPiwi is from a freshwater sponge; tags in brackets are library labels; higher = faster piRNA-guided slicing of the target
CONDITIONS USED: auxiliary factor: 500 nM mouse GTSF1
Grouping key: pre-steady-state target cleavage rate. Bins: range A = under 0.05, range B = from 0.05 up to 0.1, range C = 0.1 and over

UCCUGGAUGUGCUUGCAUAGUAUUUAGUAUA    range C
UCCUGCUACAGCUUGCAUACUAAUUAGUUA    range A
UCCUGGUACAGCUUGCAAUAGUAUUUAGUUA    range A
UCCUCCUACAGCUACGAUAGUAUUUAGUAA    range C
UCCUGGUUCAGCUUGCAUACUAUUUAGUUA    range B
UCCUGCUACAGCUUGCAUAGUAUAUACAAA    range B
UCCUCCUACAGCUUGCAAUGUAUUUAGAAA    range B
UCCUGGAUGUCCUAGCUUAGUAUUUAGUUA    range A

Which class is correct for the following sequence? UCCUGCUACAGCUUGCAUAGUUUUUUGUUA
range C

Textbook exercise: identify the category of the sequence given here, UCCUGGAUGUCGAUGCAUAGUAUAUAGUAA , according to its measured value.
range B

Which class holds UCCUGCUUGUGCUUGCAUAGUAUUUUCAAA ?
range A

Lab note: sort UCCUGGAACACGAUGCAUAGUAUUUACAAA into the matching pre-steady-state target cleavage rate band.
range B

// return the class label for UCCUGGUACACCUUGCAUAGUAUUUUCAAA
range A
